Values were extracted from PubChem BioAssay (NCI).

Test system: NCI-H522 lung
assayNotes: NCI tumour cell line growth inhibition, 48 h
Below, each of the compounds is paired with its reported TGI value.
propertyName: TGI

compound	experimentalResult
CCOC(=O)c1c(-c2ccc(OC)cc2)c(C#N)c(=S)n(C2OC(COC(C)=O)C(OC(C)=O)C(OC(C)=O)C2OC(C)=O)c1C (stereo unspecified)	> 100 µM
COc1ccc(CC(O)CN2CCOCC2)cc1 (stereo unspecified)	> 100 µM
O=C1C[C@H](Sc2ccccc2)C2(OCCO2)[C@@H](Sc2ccccc2)C1	1.81 µM
COc1cc([N+](=O)[O-])c(OC)cc1-c1nc2sc(Cl)cn2c1/C=N/Nc1ccccn1	> 50 µM
c1ccc2nc3c(cc4ccccn43)nc2c1	> 100 µM
Cc1nn(C(=O)Cc2ccccc2)c2c1C(c1ccc(O)cc1)SC(N)=N2 (stereo unspecified)	> 100 µM
CCCCC1c2c([nH]c3ccccc23)C2C(=O)N(c3ccc(OC)cc3)C(=O)C2C1CCC (stereo unspecified)	> 10 µM
C/C=C/C=C/c1nc(C#N)c(N)o1	> 100 µM
CNC(SC)=C1C(=O)OC(C)(C)OC1=O	> 100 µM
OC(c1ccc(Br)cc1)(c1cccs1)C1CC1 (stereo unspecified)	40.9 µM
N=S(c1ccccc1)c1ccccc1[N+](=O)[O-] (stereo unspecified)	11.7 µM
CCN(CC)CC(=O)N1CCc2c([nH]c3ccccc23)C1c1cccnc1 (stereo unspecified)	> 100 µM
O=C(NCCN1CCOCC1)c1ccc2cc(C(=O)N3CC(CCl)c4ccc([N+](=O)[O-])cc43)[nH]c2c1 (stereo unspecified)	39.7 µM
COc1ccc(Nc2nc3ccccc3nc2-c2cccs2)cc1	> 100 µM
CSc1c(C#N)c(N)n2c1C(=O)N(c1ccccc1)C2=S	57.7 µM
COc1cc(C2SCC(=O)N2c2ccc(NC(=O)c3ccc(N4C(=O)CSC4c4cc(OC)c(OC)c(OC)c4)cc3)cc2)cc(OC)c1OC (stereo unspecified)	> 100 µM
CCN(CC)CCOc1ccc(N2C(=O)c3cc(OC)c(OC)cc3C2=O)cc1	> 100 µM
CCCNC(=O)CCC(C)[C@H]1CCC2C3C(C[C@H](OC(C)=O)[C@@]21C)[C@@]1(C)CCC2(C[C@H]1C[C@H]3OC(C)=O)OOC1(CCC(C)CC1)OO2 (stereo partly specified)	33.3 µM
Cc1csc(-c2cn(C)c3c2C(=O)C(N)=CC3=O)n1	> 100 µM
CCCn1c(CN(Cc2nc3ccccc3n2CCC)Cc2nc3ccccc3n2CCC)nc2ccccc21	> 59.9 µM
O=C(/C=C/c1ccccc1)CC(c1ccccc1)N1CCOCC1 (stereo unspecified)	20 µM
